protocol details: yeast growth modulation, basal conditions, primary screen, YJM789 clinical isolate, OD600, 24 h (AID 1089);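 further: growth of clinical yeast isolate S. cerevisiae YJM 789 seeded 1000 cells per well; test concentration not given here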
conditions: S. cerevisiae YJM789 growth, higher = more signal, called active from +8 up or from −8 down
Would you mind labelling by z-score? At or over -0.9 is True, under is False.

Solved cases (5 shown):
Textbook exercise: given the entry O=C(NCCC[N+]1=CC=NC1c1ccccc1)N1CCCc2nc(-c3ccc(Br)cc3)ccc21 (configuration not stated) , state whether its z-score is greater than or equal to -0.9.
True

Textbook exercise: given the entry CCN1C(=O)[C@H]2[C@H]3[C@H](O)[C@H](O)CC(=NO[C@@H]4O[C@H](CO)[C@@H](O)[C@H](O)[C@H]4O)[C@H]3CC[C@H]2C1=O , state whether its z-score is greater than or equal to -0.9.
True

Textbook exercise: given the entry CCN1C(=O)[C@H]2[C@H]3[C@H](O)[C@H](O)CC(=NOCC(C)C)[C@H]3CC[C@H]2C1=O , state whether its z-score is greater than or equal to -0.9.
True

Textbook exercise: given the entry COc1ccc(OC[C@@H]2CC3[C@@H](c4ccc(Br)cc4)[C@H](C)CC[C@H]3C(=O)O2)cc1 (some centres not stated) , state whether its z-score is greater than or equal to -0.9.
True

Textbook exercise: given the entry CC(=O)OC[C@H]1O[C@H](CC=NOCC[C@@H]2C=C[C@H](OC(C)=O)[C@@H](COC(C)=O)O2)C=C[C@@H]1OC(C)=O , state whether its z-score is greater than or equal to -0.9.
False

Continuing:
Textbook exercise: given the entry CSCC[C@@H]1NC(=O)CC=C[C@@H](C)COC(=O)[C@H](C)COC1=O , state whether its z-score is greater than or equal to -0.9.
False

Textbook exercise: given the entry COC(=O)[C@@H]1CC[C@H](C)[C@@H](c2ccc(C)cc2)N1C(=O)c1ccc(C=NOC[C@@H](O)[C@H]2O[C@@H]3OC(C)(C)O[C@@H]3[C@H]2O)cc1 , state whether its z-score is greater than or equal to -0.9.
False

###

Tested on: Chordin-like protein 2 (CHRDL2)
protocol details: CHRDL2 small-molecule binders, primary screen, biochemical, small-molecule microarray, 635 nm fluorescence (AID 1126);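 further: printed compound slides probed with Chrdl2 protein at 4 µg/mL for 1 h at 4 C; score merges 667 nm emission intensity with signal to noise over three replicate slides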
conditions: small-molecule microarray binding, fluorescence 635 nm; higher = more signal
experimental endpoint: composite z-score
I'd appreciate a reply containing only the number, no unit.

Request body: readout composite z-score, system Chordin-like protein 2 (CHRDL2), query CCN1C(=O)[C@H]2[C@H]3[C@H](O)[C@H](O)CC(=NNC(=O)OCc4ccccc4)[C@@H]3CC[C@H]2C1=O . Return the value.
-0.0079

Request body: readout composite z-score, system Chordin-like protein 2 (CHRDL2), query CC(C)CON=C1C[C@@H](O)[C@@H](O)[C@@H]2[C@@H]3C(=O)N(c4ccc(F)cc4F)C(=O)[C@@H]3CC[C@@H]12 . Return the value.
0.243

Request body: readout composite z-score, system Chordin-like protein 2 (CHRDL2), query CC(C)[C@@H](OCc1ccccc1)[C@H](C)C=NOC[C@@H](O)[C@H]1O[C@@H]2OC(C)(C)O[C@@H]2[C@H]1O . Return the value.
0.314

Continuing:
Request body: readout composite z-score, system Chordin-like protein 2 (CHRDL2), query CCOC(=O)NN=C1C[C@@H](O)[C@@H](O)[C@@H]2[C@@H]3C(=O)N(c4ccc(F)cc4F)C(=O)[C@@H]3CC[C@H]12 . Return the value.
0.529
